What pIC50 was measured for each of the following?
# assayed target: T1, biotinylated recombinant human trimeric ARG2 enzyme (Avi-huARG2-His10) (human, UniProt P78540 23-354, biotinylated)
# T1 construct: also called avi-Arg2-His10; bio-ARG2
# T1 chain: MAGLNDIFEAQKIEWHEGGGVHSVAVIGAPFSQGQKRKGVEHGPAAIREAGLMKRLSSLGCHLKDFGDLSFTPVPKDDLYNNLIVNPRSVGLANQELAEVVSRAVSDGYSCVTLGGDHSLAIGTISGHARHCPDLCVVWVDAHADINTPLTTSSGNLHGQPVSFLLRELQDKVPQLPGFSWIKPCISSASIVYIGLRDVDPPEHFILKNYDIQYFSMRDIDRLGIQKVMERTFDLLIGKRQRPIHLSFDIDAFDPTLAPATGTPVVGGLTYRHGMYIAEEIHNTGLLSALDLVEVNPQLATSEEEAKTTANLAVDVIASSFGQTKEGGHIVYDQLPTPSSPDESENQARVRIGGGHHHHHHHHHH
# test method notes: HTRF epitope competition, scFv titrated, competitor C0020187 IgG, on biotinylated human trimeric ARG2
One number for each entry, as −log10 of the molar value.

binder	pIC50
C0021017 scFv (scFv, V domains shown, scFv) VH: EVQLLESGGGLVQPGGSLRLSCAASGFTFYPEYELWVRQAPGKGLEWVSAISGSGGSTYYADSVKGRFTISRDNSKNTLYLQMNSLRAEDTAVYYCARLRADLGLYMDLWGRGTLVTVSS VL: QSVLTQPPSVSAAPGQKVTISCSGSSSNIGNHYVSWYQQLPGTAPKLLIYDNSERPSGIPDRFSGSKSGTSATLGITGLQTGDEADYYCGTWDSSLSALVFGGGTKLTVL	6.91
C0021131 scFv (scFv, V domains shown, scFv) VH: EVQLLESGGGLVQPGGSLRLSCAASGFTFPYDYMGWVRQAPGKGLEWVSAISGSGGSTYYADSVKGRFTISRDNSKNTLYLQMNSLRAEDTAVYYCARLRADLGLYMDLWGRGTLVTVSS VL: QSVLTQPPSVSAAPGQKVTISCSGSSSNIGNHYVSWYQQLPGTAPKLLIYDNSERPSGIPDRFSGSKSGTSATLGITGLQTGDEADYYCGTWDELTSNLVFGGGTKLTVL	7.34
C0021065 scFv (scFv, V domains shown, scFv) VH: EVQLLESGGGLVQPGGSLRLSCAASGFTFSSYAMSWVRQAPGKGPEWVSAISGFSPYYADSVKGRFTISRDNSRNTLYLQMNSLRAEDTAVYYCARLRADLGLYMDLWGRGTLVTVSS VL: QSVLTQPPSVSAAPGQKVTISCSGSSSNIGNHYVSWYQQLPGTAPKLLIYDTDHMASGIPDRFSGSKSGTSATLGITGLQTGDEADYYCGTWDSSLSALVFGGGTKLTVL	7.13

Record pIC50 for all entries; do not skip any.
1. C0021098 scFv (scFv, V domains shown, scFv) VH: EVQLLESGGGLVQPGGSLRLSCAASGFTFSSYAMSWVRQAPGKGLEWVSSSTYGAGSTYYADSVKGRFTISRDNSKNTLYLQMNSLRAEDTAVYYCARLRADLGLYMDLWGRGTLVTVSS VL: QSVLTQPPSVSAAPGQKVTISCSGSSSNIGNHYVSWYQQLPGTAPKLLIYNSDAPMSGIPDRFSGSKSGTSATLGITGLQTGDEADYYCGTWDSSLSALVFGGGTKLTVL
2. C0021141 scFv (scFv, V domains shown, scFv) VH: EVQLLESGGGLVQPGGSLRLSCAASGFTFYPDPQGWVRQAPGKGLEWVSAYGYGIGSTYYADSVKGRFTISRDNSKNTLYLQMNSLRAEDTAVYYCARLRADLGLYMDLWGRGTLVTVSS VL: QSVLTQPPSVSAAPGQEVTISCSGSSSNIDNHYVSWYQQLPGTAPKLLIYDNSERPSGIPDRFSGSKSGTSATLGITGLQTGDEADYYCGTWDSSLSALVFGGGTKLTVL

7.32
7.29

Data origin: patent US20220403048A1
